Origin of the recorded values: patent US12703750

EXPERIMENTAL_SYSTEM: T1, Human IL13Rα2 (human, UniProt Q14627 27-343, limits assumed)
T1 construct: also called human recombinant IL13Rα2; Human IL13Ra2
T1 sequence (looked up): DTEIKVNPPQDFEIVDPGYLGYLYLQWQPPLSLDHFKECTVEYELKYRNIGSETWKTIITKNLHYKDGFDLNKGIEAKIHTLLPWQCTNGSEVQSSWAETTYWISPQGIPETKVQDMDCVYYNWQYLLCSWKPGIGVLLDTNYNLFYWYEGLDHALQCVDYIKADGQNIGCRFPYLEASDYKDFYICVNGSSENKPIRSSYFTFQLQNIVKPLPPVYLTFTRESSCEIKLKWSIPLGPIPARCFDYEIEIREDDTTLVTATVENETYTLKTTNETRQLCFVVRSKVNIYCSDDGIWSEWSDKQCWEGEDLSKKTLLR
ASSAY_PROCEDURE: SPR Biacore 8K affinity ranking, antibody supernatant Fc-captured, 100 nM IL13Rα2 analyte
Listed next: entries and their corresponding kon.
# unit: M⁻¹ s⁻¹ | format: bare number

According to the records, this binder Humanized antibody VH3 + VL1 (antibody, human IgG1, kappa, V domains shown) VH: QVQLVQSGAEVKKPGASVKVSCKASGYTFSNYLMNWVRQAPGQGLEWMGRIDPYDGDIDYNQNFKDRVTMTRDTSTSTVYMELSSLRSEDTAVYYCARGYGTAYGVDYWGQGTLVTVSS VL: DIVMTQSPDSLAVSLGERATINCRASESVDNYGISFMNWYQQKPGQPPKLLIYAASRQGSGVPDRFSGSGSGTDFTLTISSLQAEDVAVYYCQQSKEVPWTFGGGTKLEIKR displays kon of 901000

Entry Humanized antibody VH2 + VL1 (antibody, human IgG1, kappa, V domains shown) VH: QVQLVQSGAEVKKPGASVKVSCKASGYTFSNYLMNWVRQAPGQRLEWMGRIDPYDGDIDYNQNFKDRVTITRDTSASTAYMELSSLRSEDTAVYYCARGYGTAYGVDYWGQGTLVTVSS VL: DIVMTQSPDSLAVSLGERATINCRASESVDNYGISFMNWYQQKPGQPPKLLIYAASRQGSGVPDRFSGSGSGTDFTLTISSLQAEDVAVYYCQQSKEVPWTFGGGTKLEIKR — recorded kon = 593000
